- conditions_used: in n-propanol, 313.15 K
readout_label: solubility (mole fraction)
The reply should be a number, written without any unit.

Prompt: Identify solubility (mole fraction) associated with the compound "CNC(=O)c1cc(Oc2ccc(NC(=O)Nc3ccc(Cl)c(C(F)(F)F)c3)cc2)ccn1"
Response: 0.00207

----------
- conditions_used: in isopropanol, 308.15 K
readout_label: solubility (mole fraction)
Reply briefly: the number, and no unit.

Prompt: Annotate the compound "CNC(=O)c1cc(Oc2ccc(NC(=O)Nc3ccc(Cl)c(C(F)(F)F)c3)cc2)ccn1" with its measured solubility (mole fraction).
Response: 0.00123

----------
- conditions_used: in 2-butanone, 313.15 K
readout_label: solubility (mole fraction)

Prompt: Find the measured solubility (mole fraction) of "CNC(=O)c1cc(Oc2ccc(NC(=O)Nc3ccc(Cl)c(C(F)(F)F)c3)cc2)ccn1" and report it.
Response: 0.0133
